Numbers sourced from ChEMBL document CHEMBL1201862.

Target under test: DNA repair and recombination protein RAD54-like (Homo sapiens)
Sequence (Q92698 whole entry): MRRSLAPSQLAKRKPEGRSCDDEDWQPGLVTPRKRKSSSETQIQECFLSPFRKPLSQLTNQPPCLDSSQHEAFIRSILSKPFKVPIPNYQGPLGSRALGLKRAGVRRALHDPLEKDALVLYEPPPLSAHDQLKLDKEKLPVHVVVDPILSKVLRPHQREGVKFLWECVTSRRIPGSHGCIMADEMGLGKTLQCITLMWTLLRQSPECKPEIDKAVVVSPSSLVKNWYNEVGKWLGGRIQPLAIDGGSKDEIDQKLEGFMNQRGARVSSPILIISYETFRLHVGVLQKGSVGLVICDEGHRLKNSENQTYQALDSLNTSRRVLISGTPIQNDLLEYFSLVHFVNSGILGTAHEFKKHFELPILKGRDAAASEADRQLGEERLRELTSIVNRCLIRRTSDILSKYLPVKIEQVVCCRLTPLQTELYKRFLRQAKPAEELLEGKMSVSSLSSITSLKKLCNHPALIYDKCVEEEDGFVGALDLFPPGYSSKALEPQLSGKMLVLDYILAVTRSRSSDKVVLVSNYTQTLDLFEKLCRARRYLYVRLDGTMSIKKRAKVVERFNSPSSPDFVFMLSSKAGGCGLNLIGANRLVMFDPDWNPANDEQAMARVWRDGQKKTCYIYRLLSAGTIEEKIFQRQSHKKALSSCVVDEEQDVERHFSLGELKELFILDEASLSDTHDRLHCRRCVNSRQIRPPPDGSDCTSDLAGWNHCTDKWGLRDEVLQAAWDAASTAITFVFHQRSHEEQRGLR
Protocol text: inhibitors of human RAD54 branch migration, confirmation, biochemical, fluorescence, cherry-picked samples, dose series (AID 651657)
Type: functional
The source made the active and inactive calls.
Reported AC50 values for a set of molecules

In the examples that follow, each entry is paired with its recorded AC50.
Structure smiles string: CCCCN(CC)CCNC(=O)c1cc2c(=O)n(C)c3ccccc3c2n1C
Test value: 32.3 µM (active)
--
Structure smiles string: N=c1c(C(=O)NCCN2CCOCC2)cc2c(=O)n3ccccc3nc2n1CCCN1CCOCC1
Test value: 11.5 µM (active)
--
Structure smiles string: CCCN(CCC)CCNC(=O)c1cc2c(-c3ccc(Cl)cc3)nn(C)c2s1
Test value: 20.9 µM (active)

With those in mind, consider the next molecule.
Given item Cc1ccc(C(=O)c2oc3ccc(Cl)cc3c2NC(=O)CN2CCN(C)CC2)cc1 , the value recorded as its AC50 is 11.8 µM (active)

###

Test system: H9c2;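 further: cell death induced by hydrogen peroxide oxidative stress; compound pretreatment for 60 min then peroxide exposure for 2 h; potency is for protecting the cells against peroxide damage rather than for killing them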;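 further: confirmatory concentration-response retest of ultra-high-throughput screening hits for modulation of myocardial damage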
Protocol text: cells
Format: functional, cell-based
Details: Rattus norvegicus, H9c2, Myocardium
Active and inactive are the calls of the source.
Classes to choose from: label 1 for active, label 0 for inactive

Examples with answers:
Compound: CC(C)C1Nc2ccc(C(=O)N3CCN(c4ccccn4)CC3)cc2NC1=O (centres undefined)
Assigned label: label 1
--
Compound: Cc1cc(C)cc(C(=O)Nc2ccc(NC(=O)c3cccs3)cc2)c1
Assigned label: label 0
--
Compound: CN1CCN(Cc2nc(O)c3ccccc3n2)CC1
Assigned label: label 1

Next compound, please.
Record request — test call for NC(=O)c1nsc(C(=O)N(CCc2ccccc2)C(C(=O)NC2CCCC2)c2ccco2)c1N (centres undefined) label 0

###

Target under test: Methionyl-tRNA synthetase, putative (Trypanosoma brucei brucei);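 further: Read-out by fluorescence polarization, run as a confirmatory high-throughput counterscreen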;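 further: potency of MetRS inhibitors measured by reduced AMP formation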
Sequence (Q38C91 whole entry): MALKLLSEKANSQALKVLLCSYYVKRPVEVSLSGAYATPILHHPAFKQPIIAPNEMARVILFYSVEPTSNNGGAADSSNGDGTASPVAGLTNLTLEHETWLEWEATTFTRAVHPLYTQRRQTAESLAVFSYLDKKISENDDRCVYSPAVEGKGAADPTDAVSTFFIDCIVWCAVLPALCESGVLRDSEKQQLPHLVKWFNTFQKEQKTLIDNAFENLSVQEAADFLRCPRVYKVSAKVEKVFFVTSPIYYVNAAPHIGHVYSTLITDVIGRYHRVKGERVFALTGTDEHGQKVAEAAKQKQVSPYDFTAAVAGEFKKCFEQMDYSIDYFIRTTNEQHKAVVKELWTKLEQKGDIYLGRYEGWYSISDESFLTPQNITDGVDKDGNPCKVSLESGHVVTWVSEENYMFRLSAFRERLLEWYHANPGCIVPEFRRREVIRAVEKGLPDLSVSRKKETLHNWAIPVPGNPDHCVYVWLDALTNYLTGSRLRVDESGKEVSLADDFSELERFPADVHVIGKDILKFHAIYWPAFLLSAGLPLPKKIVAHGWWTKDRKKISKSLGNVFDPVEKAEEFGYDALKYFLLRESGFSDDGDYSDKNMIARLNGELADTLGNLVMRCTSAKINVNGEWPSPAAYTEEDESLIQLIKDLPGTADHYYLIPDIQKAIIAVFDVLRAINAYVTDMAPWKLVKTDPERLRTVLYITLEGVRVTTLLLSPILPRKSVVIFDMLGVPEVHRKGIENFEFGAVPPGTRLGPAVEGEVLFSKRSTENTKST
Type: functional, Trypanosoma brucei brucei strain 927/4 GUTat10.1
Activity calls are given as the source filed them.
Classes to choose from: YES for active, NO for inactive

Compound: O=C1[C@@H]2Cc3c([nH]c4ccccc34)C(c3cccc([N+](=O)[O-])c3)N2C(=O)CN1C1CCN(Cc2ccccc2)CC1 (some centres undefined)
Assigned label: YES
--
Compound: Fc1ccccc1CSc1nc2ncc(Br)cc2[nH]1
Assigned label: NO
--
Compound: Cc1csc(CNc2ncnc3ccc(-c4ccccc4Cl)cc23)c1
Assigned label: NO

Next compound, please.
Record request — test call for CC(C)(C)[C@H]1C=C(C(=O)NCc2nc3ccccc3[nH]2)O[C@@H](OCc2ccc(CO)cc2)C1 YES
